- Tested on: B78-D14 m.11,944^60% cells
- ASSAY SUMMARY: Cell sensitivity to inhibitors (IC50 from final confluency, IncuCyte)
- Type: cell-based, mouse
- SETTINGS: Mus musculus; printed as mt.11944^80%; read-out: IC50
QUANTITY MEASURED: IC50 (mM)
Please reply with the bare figure in mM and do not write the unit itself.

MOLECULE: CC[C@H]1/C=C/C=C/C[C@@H](C)[C@H](O)[C@@](C)(O)C(=O)[C@@H](C)[C@H](O)[C@@H](C)C(=O)[C@@H](C)[C@H](O)[C@@H](C)/C=C/C(=O)O[C@@H]2[C@H](C)[C@H](CC1)O[C@]1(CC[C@H](C)[C@H](C[C@@H](C)O)O1)[C@H]2C [oligomycin]
UNIT: mM
ENDPOINT VALUE: 0.0135

Now for a further molecule.
Short answer for CN(C)C(=N)N=C(N)N [metformin] : IC50 was 22.9
